# System Under Test: Neuronal acetylcholine receptor; alpha4/beta4 (Rattus norvegicus, UniProt P09483+P12392)
# Sequence (P09483 whole entry): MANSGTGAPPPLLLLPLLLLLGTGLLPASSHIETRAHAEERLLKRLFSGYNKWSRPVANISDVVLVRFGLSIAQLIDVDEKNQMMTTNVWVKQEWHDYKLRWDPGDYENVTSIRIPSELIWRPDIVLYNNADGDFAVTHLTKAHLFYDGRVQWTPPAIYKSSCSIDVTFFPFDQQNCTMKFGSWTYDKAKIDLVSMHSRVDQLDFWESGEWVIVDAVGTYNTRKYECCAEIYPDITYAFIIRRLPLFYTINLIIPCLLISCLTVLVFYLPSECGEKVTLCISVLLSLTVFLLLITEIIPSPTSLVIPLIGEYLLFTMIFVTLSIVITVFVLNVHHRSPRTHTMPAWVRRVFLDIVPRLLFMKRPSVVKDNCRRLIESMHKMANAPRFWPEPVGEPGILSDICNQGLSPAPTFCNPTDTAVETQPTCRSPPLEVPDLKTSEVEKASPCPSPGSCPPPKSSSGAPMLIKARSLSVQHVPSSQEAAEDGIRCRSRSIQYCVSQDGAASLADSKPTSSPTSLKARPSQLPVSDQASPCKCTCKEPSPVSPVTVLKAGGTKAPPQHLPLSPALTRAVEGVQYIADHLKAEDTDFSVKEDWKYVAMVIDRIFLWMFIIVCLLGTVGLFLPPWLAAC
# Sequence (P12392 whole entry): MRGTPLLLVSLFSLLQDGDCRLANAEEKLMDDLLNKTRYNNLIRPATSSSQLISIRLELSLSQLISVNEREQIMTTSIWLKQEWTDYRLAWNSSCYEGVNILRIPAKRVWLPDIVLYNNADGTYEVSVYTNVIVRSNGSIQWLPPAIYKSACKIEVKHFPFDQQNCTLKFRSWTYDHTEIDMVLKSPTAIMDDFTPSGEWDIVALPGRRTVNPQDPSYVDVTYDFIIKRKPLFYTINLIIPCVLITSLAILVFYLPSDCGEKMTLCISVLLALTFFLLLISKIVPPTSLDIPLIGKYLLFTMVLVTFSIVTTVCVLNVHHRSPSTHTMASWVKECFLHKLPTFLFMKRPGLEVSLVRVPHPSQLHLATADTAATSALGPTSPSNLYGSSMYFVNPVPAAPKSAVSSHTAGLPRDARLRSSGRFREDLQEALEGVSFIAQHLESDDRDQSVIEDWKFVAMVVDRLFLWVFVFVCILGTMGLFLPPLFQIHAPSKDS
# Test: Displacement of [3H]epibatidine from rat recombinant alpha-4-beta-4 nAChR expressed in HEK293 cells
With a cut-off of 400 nM, any Ki strictly below it is called Criterion met; any Ki meeting it or above is called Criterion not met.

[[record]]
molecule = "CC(CCOC(=O)N1CCCC1)N(C)C (configuration not stated)"
system_under_test = "Neuronal acetylcholine receptor; alpha4/beta4 (Rattus norvegicus, UniProt P09483+P12392)"
label_class = "Criterion not met"

[[record]]
molecule = "CC(CCOC(=O)n1cccc1)N(C)C (configuration not stated)"
system_under_test = "Neuronal acetylcholine receptor; alpha4/beta4 (Rattus norvegicus, UniProt P09483+P12392)"
label_class = "Criterion not met"

[[record]]
molecule = "CC(CCOC(=O)c1ccccc1)N(C)C (configuration not stated)"
system_under_test = "Neuronal acetylcholine receptor; alpha4/beta4 (Rattus norvegicus, UniProt P09483+P12392)"
label_class = "Criterion not met"

[[record]]
molecule = "CC(CCOC(=O)N1CCC1)N(C)C (configuration not stated)"
system_under_test = "Neuronal acetylcholine receptor; alpha4/beta4 (Rattus norvegicus, UniProt P09483+P12392)"
label_class = "Criterion met"

[[record]]
molecule = "CC1CN(C(=O)OCC[C@@H](C)N(C)C)C1"
system_under_test = "Neuronal acetylcholine receptor; alpha4/beta4 (Rattus norvegicus, UniProt P09483+P12392)"
label_class = "Criterion met"

[[record]]
molecule = "CC1CN(C(=O)OCCC(C)N(C)C)C1 (configuration not stated)"
system_under_test = "Neuronal acetylcholine receptor; alpha4/beta4 (Rattus norvegicus, UniProt P09483+P12392)"
label_class = "Criterion met"

[[record]]
molecule = "CC(CCOC(=O)N(C)C)N(C)C (configuration not stated)"
system_under_test = "Neuronal acetylcholine receptor; alpha4/beta4 (Rattus norvegicus, UniProt P09483+P12392)"
label_class = "Criterion met"

[[record]]
molecule = "CC1CN(C(=O)OCC[C@H](C)N(C)C)C1"
system_under_test = "Neuronal acetylcholine receptor; alpha4/beta4 (Rattus norvegicus, UniProt P09483+P12392)"
label_class = "Criterion not met"


Q: Does CC(CCOC(=O)N1CCC1(C)C)N(C)C (configuration not stated) have Ki strictly under 400 nM?
Result: Criterion not met

Q: Does CC(CCOC(=O)C1CCC1)N(C)C (configuration not stated) have Ki strictly under 400 nM?
Result: Criterion not met

Q: Does CC(CCOC(=O)N1CC(C)(C)C1)N(C)C (configuration not stated) have Ki strictly under 400 nM?
Result: Criterion not met

Q: Does CC(=O)OCCC(C)N(C)C (configuration not stated) have Ki strictly under 400 nM?
Result: Criterion met

Q: Does CC(CCOC(=O)N1CCC1C)N(C)C (configuration not stated) have Ki strictly under 400 nM?
Result: Criterion met

Q: Does CC(CCOC(=O)N1CC(F)(F)C1)N(C)C (configuration not stated) have Ki strictly under 400 nM?
Result: Criterion not met

Q: Does CC(C)C(=O)OCCC(C)N(C)C (configuration not stated) have Ki strictly under 400 nM?
Result: Criterion not met

Q: Does CC(CCOC(=O)N1CCCCC1)N(C)C (configuration not stated) have Ki strictly under 400 nM?
Result: Criterion met

Q: Does CC(CCOC(=O)C1CC1)N(C)C (configuration not stated) have Ki strictly under 400 nM?
Result: Criterion met
